Kd overview
Biological target: SARS-CoV-2 spike receptor-binding domain (RBD), monomeric (SARS-CoV-2, UniProt P0DTC2)
Test: BLI
Please respond with the number in nM and leave the unit unwritten.

{"columns": ["binder", "endpoint.result"],
 "data": [
  ["MD45 (antibody, V domains shown, biotinylated when immobilised on the BLI sensor) VH: EVQLVQSGGGLVQPGGSLRLSCAASGFTVSSNYMTWVRQAPGKGLEWVSVIYSGGSTFYADSVKGRFTISRHNSKNTLYLQMNSLRAEDTAVYYCARDLSVRGGMDVWGQGTMVTVSS VL: EIVLTQSPGTLSLSPGERATLSCRASQSVNSSYLAWYQQKPGQAPRLLIYGASNRATGIPDRFSGSGSGTDFTLTISRLEPEDFAVYYCQQYGVSPEIIFGQGTRLEIK", 5.6],
  ["MD62 (antibody, V domains shown, biotinylated when immobilised on the BLI sensor) VH: EVQLVQSGGGLIQPGGSLRLSCAASGVTVSSNYMTWVRQAPGKGLEWVSLIYSGGSTYYADSVKGRFTISRDNSKNTLYLQMNSLRAEDTAVYYCARDLQYYGMDVWGQGTMVTVSS VL: AIRMTQSPSSVSASVGDRVTITCRASQDIGSWLGWYQQKPGKAPKLLIYAASSLAGGVPSRFSGSGSGTDFTLTISSLQPEDFATYYCQQANSFPLTFGGGTKLEIK", 4.8]
]}

From here, focus on the item given below.
### Prompt Which Kd is reported for this binder? MD47 (antibody, V domains shown, biotinylated when immobilised on the BLI sensor) V domain 1: QMQLVQSGGGLVQPGGSLRLSCAASGFTFSSYAMSWVRQAPGKGLEWVSAISSGGSTYYADSVKGRFTISRDNSKNTLYLQMNSLRAEDTAVYYCAKDLVTAPSYEAFDIWGQGTMITVSS V domain 2: NFMLTQPPSVSVAPGKTARITCGGNNIGSKSVHWYQQKPGQAPVLVIYYDSDRPSGIPERFSGSNSGNTATLTISRVEAGDEADYYCQVWDSSSHHHVVFGGGTKGTVL
### Response 0.5
